Where do the numbers come from? From ChEMBL document CHEMBL5247578.

In this section we review reported inhibition at 10 µM values for a set of compounds.
System: A498
Experiment: Antiproliferative activity against human A498 cells assessed as cell growth inhibition at 10 uM incubated for 48 hrs by sulforhodamine B assay relative to control
Assay type: functional
Output spec: scalar in %, unitless text.

Consider the reported inhibition at 10 µM for these compounds:
>>> readoutvalue("c1ccc(Cn2cnc3ccc(-c4nc(-c5ccc6c(c5)ncn6C5CCCCC5)cn5ccnc45)cc32)cc1")
-71.8
>>> readoutvalue("COc1ccccc1-c1cn2ccnc2c(-c2ccc3ncn(C4CCCCC4)c3c2)n1")
13.9
>>> readoutvalue("c1cn2cc(-c3ccc4c(c3)ncn4C3CCCCC3)nc(-c3ccc4ncn(C5CCCCC5)c4c3)c2n1")
16.3

Ask | What measured inhibition at 10 µM is associated with `c1ccc2c(-c3cn4ccnc4c(-c4ccc5ncn(C6CCCCC6)c5c4)n3)cccc2c1` on A498?
Reply | 14

Ask | And then `c1ccc(Cn2cnc3ccc(-c4nc(-c5cccc6ccccc56)cn5ccnc45)cc32)cc1` , what is it?
Reply | 6.74

Ask | And then `O=Cc1ccc(-c2cn3ccnc3c(-c3ccc4ncn(C5CCCCC5)c4c3)n2)cc1` , what is it?
Reply | 11.2

Ask | And then `c1cn2cc(-c3ccc4ncn(C5CCCCC5)c4c3)nc(-c3ccc4ncn(C5CCCCC5)c4c3)c2n1` , what is it?
Reply | 26.2

Ask | And then `c1csc(-c2cn3ccnc3c(-c3ccc4ncn(C5CCCCC5)c4c3)n2)c1` , what is it?
Reply | 25

Ask | And then `O=Cc1ccc(-c2cn3ccnc3c(-c3ccc4ncn(Cc5ccccc5)c4c3)n2)cc1` , what is it?
Reply | 11.2

Ask | And then `Cc1cccc(-c2cn3ccnc3c(-c3ccc4ncn(Cc5ccccc5)c4c3)n2)c1` , what is it?
Reply | 22.1

Ask | And then `c1ccc(-c2cn3ccnc3c(-c3ccc4ncn(C5CCCCC5)c4c3)n2)cc1` , what is it?
Reply | 26.1

Ask | And then `Brc1ccc(-c2cn3ccnc3c(-c3ccc4ncn(C5CCCCC5)c4c3)n2)cc1` , what is it?
Reply | 20.7

Ask | And then `COc1ccc(-c2cn3ccnc3c(-c3ccc4ncn(C5CCCCC5)c4c3)n2)cc1` , what is it?
Reply | -12.3

Ask | And then `c1cn2cc(-c3ccsc3)nc(-c3ccc4ncn(C5CCCCC5)c4c3)c2n1` , what is it?
Reply | 20.1
